test: yeast display, Sf9 membrane polyspecificity reagent, FACS + sequencing; frameworks hold sequencing errors

residue string	polyreactivity (PSR sort gate)
QVQLVESGGGLVQAGGSLRLSCAASGRIFPYYTMGWYRPAPGKERELVAAISRRGSSTYYADSVKGRFTISRDNAKNTVYLQMNSLKPEDTAVYFCAADRGGYTRTGEYDYWGQGTQVTVSS	high polyreactivity
QVQLEESGGGLVQAGGSLRLSCAASGSTFLLYAMGRYRQAPGKEMEMVATISWGGDGTYYADSVKGRFTISRDNAKNTVYLQMNSLIPEDTAVYYCAAESYLVQFYFLYYYWGQGTQVTVSS	low polyreactivity
QVQLVESGGGLVQAGGSLRLICADSGSIFDGNVMGWYRQAPGKERDLVAAISGARTNYADSVKGRFTISRDNAKNTVYLQMNSLKAEDTAVYYCNVLPVGSEYDYWGQGTQVTVST	low polyreactivity
QVQLVESGGGLVEAGGSLRLSCAASGRIFKVYAMGWYRQGPGKERELVAAISRSCGSTYYADSVKGRFTISRDKAKITVSLQMNSLKPEDTAVYYCNAYFVSGHAGGYDYWGQGTQVTVSS	high polyreactivity

----------
assay: yeast display, Sf9 membrane polyspecificity reagent, FACS + sequencing; frameworks hold sequencing errors
assay endpoint: polyreactivity (PSR sort gate)

residue string	assay endpoint	result
QVQLVESGGGLVQAGGSLRLSCAASGSTVYHYAMGWNRQAPGKERELVAAISFSGGRTSYADSVKGRFTISRDNAKNTVDLQMNSLKPEDTAGYYCAAKYIRFARSRDYWGHGTQVTVSS	polyreactivity (PSR sort gate)	high polyreactivity
QVQLVESGGGLVQAGGSLRLSCAASGFIFRRNAMGWYRQAPGKERELVAAITGGGGSTYYADSVKGRFTISRDNAKNTVYLQMNSLKPEDTAVYYCAVDWSRFYNRGGDYWGQGTQVTVSS	polyreactivity (PSR sort gate)	high polyreactivity

----------
assay: yeast display, Sf9 membrane polyspecificity reagent, FACS + sequencing; frameworks hold sequencing errors
assay endpoint: polyreactivity (PSR sort gate)

Example cases with answers are listed next.
residue string	polyreactivity (PSR sort gate)
QVQLVESGGGLVQAGGRLRLSCAASGRIFPWYAMGWSRPAPGKERELVAAISWSGGRTYYADSVKGRFTISRDNAKNTVYLQMNSLKPEDTAVDYCNADKWRYPLSGWWKRYDYWGQGTQVTVSS	high polyreactivity
QVQLVESGGGLVQAGGSLRLSCAASGRIFSANAMGWYRQAPGKERELVATISTGGGRTYYADSVKGRFTISRDNAKNTVYLQMNSLKPVDTAVYYCNATRNYARVRYYYWGQGTQVTVSS	high polyreactivity
QVQLVESGGGLVQAGGSLRLSCAASGIIFTLYAMGWYRQAPGKERELVATISTGGGTYYADSVKGRFTISRDNAKNTVYLQMNSLKPEDTAVYYCNAVKLLGTRGYGYWGQGTQVTVSS	high polyreactivity
HVQLVESGGGLVQAGGSLRLSCAASGGISIDNVMGWYRQATGKERELVAAISKSGGRTFYADSVKGRFTISRDNAKNTVYLQMNSLKPEDTAVYYCAKLYISKPYWYEHEYWGQGTQVTVSS	high polyreactivity

Asked: Determine from records and report polyreactivity (PSR sort gate) for "QVQLVESVGGLVQAGGRLRLTCAASGFIFTHYAMVWYRQAPGKERELVAAISWNGGRTYYADSVKGRFTISRDNANITVYLQMNSLKPEDTAVYYCAARIYLSKSFNFWGQGTQVTVSS"
Given back: high polyreactivity

Asked: Return polyreactivity (PSR sort gate) for the following sequence: "QVQLVESGGGLVQAGGSLRLSCAASGFTVTRYAMGWYRQAPGKERELVAAITRSGSSTSYADSVKGRFTISRDNAKNTVSLQINSLKPEDTAVYYCAARLHSPRYRYDYWGQGTQVTVSS"
Given back: high polyreactivity

Asked: Give the reported value of polyreactivity (PSR sort gate) for this record: "QVQLVESGGGLVQAGVSLRLSCAASGNTFWVYAKGSYRQAPGKARELVAAMTRGGSTNYEDSVKGRFTISRDNAKNTVYFQMNSLKPEDTAGYYCAAESFIYFPYKMDYWGQGTQVTVSS"
Given back: low polyreactivity

Asked: Give reported polyreactivity (PSR sort gate) value for "QVQLVESGGGLVQAGGSLRLSCAASGFTFYNYAMGWYRQAPGKERELVAAITSSGGRTYYADSVKGRFTISRDNAKNTVYLQMNSLKPEDTAVYYCAATGFYLRGEYYYCGQGTQVTVSS"
Given back: low polyreactivity

Asked: Supply polyreactivity (PSR sort gate) value. Item: "QDQLVESGGGLVQAGGSLRLSCAASGFTFYSYAMGWYRQAPGKEREFVATITSSGGSTYYADSVKGRFTISRDTAKNTVYLQINSLNTEDTAVYYCAKDRYLYYRRRGQYDYWGQGTQVTVSS"
Given back: high polyreactivity

All figures here come from the nanobody polyreactivity screen of Harvey et al. (2022).
